# TARGET SYSTEM: Nonstructural protein 3 (Zika virus)
# EXPERIMENTAL SETUP: PRVABC59, Concentration 15.0 uM, Number of replicates 1.0
# Description: Functional biochemical assay to identify treatments for viral infectious disease that targets Zika NS2B-NS3 protease. Utilizing a direct enzyme activity measurement method, reading the fluorescence intensity is used to characterize the relative potency of inhibitors as % inhibition.
The campaign covered roughly 2,700 compounds. About 160 (5.9%) showed an effect of 50% or more. The full list was thinned out, with strong results kept by preference.
Would you mind telling me the reported inhibition of each entry?
Numbers only; they are read as %.

Form field inhibition, entry COc1ccc(-c2cc(NC(=O)c3cc(Cl)ccc3NS(=O)(=O)c3ccc(Oc4ccccc4Cl)cc3)[nH]n2)cc1 : 57.5

Form field inhibition, entry O=C(Nc1ccc(-n2cccn2)cc1)c1cc(Cl)ccc1NS(=O)(=O)c1ccc(Oc2ccccc2Cl)cc1 : 71.5

Form field inhibition, entry COc1cc(NC(=O)c2cc(Cl)ccc2NS(=O)(=O)c2ccc(Oc3ccccc3Cl)cc2)cc(OC)c1 : 24.1

Form field inhibition, entry O=C(Nc1ccc(Br)c(C(F)(F)F)c1)c1cc(Cl)ccc1NS(=O)(=O)c1ccc(Oc2ccccc2Cl)cc1 : 29.1

Form field inhibition, entry CC(C)(C)c1csc(NC(=O)c2cc(Cl)ccc2NS(=O)(=O)c2ccc(Oc3ccccc3Cl)cc2)n1 : 22.1

Form field inhibition, entry COc1ccc(NC(=O)c2cc(Cl)ccc2NS(=O)(=O)c2ccc(Oc3ccccc3Cl)cc2)cc1C(F)(F)F : 51.3

Form field inhibition, entry CCN1CCN(c2ccc(NC(=O)c3cc(Cl)ccc3NS(=O)(=O)c3ccc(Oc4ccccc4Cl)cc3)cc2)CC1 : 17.1

Form field inhibition, entry O=C(Nc1nc(Cl)nc2nc[nH]c12)c1cc(Cl)ccc1NS(=O)(=O)c1ccc(Oc2ccccc2Cl)cc1 : 22.5

Form field inhibition, entry O=C(Nc1ccc(Br)cc1O)c1cc(Cl)ccc1NS(=O)(=O)c1ccc(Oc2ccccc2Cl)cc1 : 58.9
